The reader will find reported phosphorylation enrichment values listed item by item below.
TARGET SYSTEM: Jak2 (UniProt O60674)
Sequence (O60674 whole entry, looked up): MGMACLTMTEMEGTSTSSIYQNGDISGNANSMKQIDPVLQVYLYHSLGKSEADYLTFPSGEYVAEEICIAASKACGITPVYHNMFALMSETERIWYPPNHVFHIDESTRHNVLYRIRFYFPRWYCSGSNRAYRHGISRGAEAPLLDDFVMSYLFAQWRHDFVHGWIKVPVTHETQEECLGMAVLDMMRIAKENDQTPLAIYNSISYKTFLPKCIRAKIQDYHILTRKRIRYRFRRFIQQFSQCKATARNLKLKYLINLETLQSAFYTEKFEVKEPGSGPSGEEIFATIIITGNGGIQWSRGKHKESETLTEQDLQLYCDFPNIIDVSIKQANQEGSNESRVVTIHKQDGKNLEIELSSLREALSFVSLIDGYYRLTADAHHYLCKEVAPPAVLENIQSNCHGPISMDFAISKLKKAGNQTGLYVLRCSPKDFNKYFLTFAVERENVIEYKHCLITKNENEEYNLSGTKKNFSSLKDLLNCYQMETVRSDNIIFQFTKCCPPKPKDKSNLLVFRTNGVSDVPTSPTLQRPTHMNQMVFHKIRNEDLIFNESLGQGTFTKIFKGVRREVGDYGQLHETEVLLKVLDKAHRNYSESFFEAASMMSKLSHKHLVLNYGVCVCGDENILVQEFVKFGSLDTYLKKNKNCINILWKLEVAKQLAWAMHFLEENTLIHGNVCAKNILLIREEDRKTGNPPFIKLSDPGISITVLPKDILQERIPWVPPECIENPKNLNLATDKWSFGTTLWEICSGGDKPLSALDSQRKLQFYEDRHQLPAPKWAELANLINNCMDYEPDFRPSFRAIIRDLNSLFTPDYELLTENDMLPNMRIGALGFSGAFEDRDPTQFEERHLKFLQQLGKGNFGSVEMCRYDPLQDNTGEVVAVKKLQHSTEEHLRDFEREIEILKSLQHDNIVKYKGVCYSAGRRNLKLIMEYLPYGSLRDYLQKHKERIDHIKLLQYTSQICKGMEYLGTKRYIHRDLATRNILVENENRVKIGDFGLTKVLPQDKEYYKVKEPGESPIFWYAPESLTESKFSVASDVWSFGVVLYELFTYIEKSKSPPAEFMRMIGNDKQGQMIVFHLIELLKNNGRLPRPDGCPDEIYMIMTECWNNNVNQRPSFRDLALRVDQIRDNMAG
ASSAY INFO: phosphorylation enrichment, bacterial display (enrichment ratio); higher = better substrate or ligand; peptides without Tyr show the background;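 note: 11-residue human phosphosite peptides and single-mutation variants displayed on the E. coli surface, counted by deep sequencing, each peptide's frequency after selection divided by its frequency in the unselected input library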;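 note: frequency after pTyr selection over input frequency; kinase dosed for 20-30% of maximal phosphorylation in three min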
PROPERTY LABEL: phosphorylation enrichment

RESIDUE CODES: TVQIMYGCDVG [HLA-A_Y123_I119V]
REPORTED MEASUREMENT: 0.955
//
RESIDUE CODES: GITVAYTIPKK [UBA5_Y372]
REPORTED MEASUREMENT: 0.669
//
RESIDUE CODES: SLDLSYYHTSS [EMD_Y181_P183H]
REPORTED MEASUREMENT: 1.71
//
RESIDUE CODES: QLRPGYIPIPV [BAG3_Y93]
REPORTED MEASUREMENT: 1.08
//
RESIDUE CODES: PEADKYRLPFA [FGG_Y300_T303P_YF]
REPORTED MEASUREMENT: 0.731
//
RESIDUE CODES: GDDLSYGDVPP [IRS1_Y151_E147D]
REPORTED MEASUREMENT: 1.04
//
RESIDUE CODES: GVKLTYGDAQN [SLC28A1_Y404]
REPORTED MEASUREMENT: 1.63
//
RESIDUE CODES: KPFRVYCDMNT [FGB_Y269_YF]
REPORTED MEASUREMENT: 1.31
//
RESIDUE CODES: TEQDPSNNIVR [MMUT_Y364_Y364S]
REPORTED MEASUREMENT: 0.771
//
RESIDUE CODES: ICTVDYLLRLQ [RYR1_Y3921]
REPORTED MEASUREMENT: 1.12
//
RESIDUE CODES: DEEPPHRGPFC [SASH1_Y551_Y551H]
REPORTED MEASUREMENT: 0.795
//
RESIDUE CODES: HEHVGYTTLNR [CHN1_Y148_Y143H]
REPORTED MEASUREMENT: 0.669
//
RESIDUE CODES: FGLDHYQCDCT [PTGS1_Y54_R53H]
REPORTED MEASUREMENT: 0.812
//
RESIDUE CODES: GYRPVYSEDEQ [CHST6_Y362]
REPORTED MEASUREMENT: 1.16
//
RESIDUE CODES: EPTPGYEVGQR [TSC2_Y1788]
REPORTED MEASUREMENT: 0.672
//
RESIDUE CODES: EHVMPYAANKN [GRIN2A_Y1431]
REPORTED MEASUREMENT: 0.56
//
RESIDUE CODES: SKDQIYPMKLK [RANBP17_Y823]
REPORTED MEASUREMENT: 0.493
//
RESIDUE CODES: SRGRQYQELPR [KCNH2_Y1009]
REPORTED MEASUREMENT: 0.455
//
RESIDUE CODES: EALDFYGEVRI [PTEN_Y155_T160I]
REPORTED MEASUREMENT: 2.03
//
RESIDUE CODES: SIFKDYFRFNF [PLA2G2D_Y85_YF]
REPORTED MEASUREMENT: 2.8
//
RESIDUE CODES: FYDANYDGKEY [MAPRE2_Y162]
REPORTED MEASUREMENT: 1.14
//
RESIDUE CODES: RSACTYLASHL [PLK3_Y615]
REPORTED MEASUREMENT: 0.575
